experimental_protocol: In vitro anticoagulant activity determined by clotting test of activated partial thromboplastin time (APTT) on a pool of human plasma
Type: functional
reported_metric: APTT (IU mg-1)
Quick note: give the figure in IU mg-1, leave out the unit.

Worked examples, 2 compounds total:
compound	APTT, IU mg-1
O=C([O-])/C=C(\CO)OC1OC(COS(=O)(=O)[O-])C(OC2OC(C(=O)[O-])C(OC3OC(COS(=O)(=O)[O-])C(OC4OC(C(=O)[O-])C(OC5OC(COS(=O)(=O)[O-])C(O)C(O)C5NS(=O)(=O)[O-])C(O)C4OS(=O)(=O)[O-])C(O)C3NS(=O)(=O)[O-])C(O)C2OS(=O)(=O)[O-])C(O)C1NS(=O)(=O)[O-].[Na+].[Na+].[Na+].[Na+].[Na+].[Na+].[Na+].[Na+].[Na+].[Na+].[Na+] (stereo in doubt; 3a)	5
CCCCCC(=O)OC/C(=C\C(=O)[O-])OC1OC(COS(=O)(=O)[O-])C(OC2OC(C(=O)[O-])C(OC3OC(COS(=O)(=O)[O-])C(OC4OC(C(=O)[O-])C(OC5OC(CS(=O)(=O)[O-])C(O)C(OC(=O)CCCCC)C5NS(=O)(=O)[O-])C(OC(=O)CCCCC)C4OS(=O)(=O)[O-])C(OC(=O)CCCCC)C3NS(=O)(=O)[O-])C(OC(=O)CCCCC)C2OS(=O)(=O)[O-])C(OC(=O)CCCCC)C1NS(=O)(=O)[O-].[Na+].[Na+].[Na+].[Na+].[Na+].[Na+].[Na+].[Na+].[Na+].[Na+].[Na+] (stereo in doubt; 2e)	7

Note: attention shifts to another entry.
Input line: Give reported APTT value for CC(=O)NC1C(OC2C(C(=O)[O-])OC(OC3C(COS(=O)(=O)[O-])OC(OC4C(C(=O)[O-])OC(OC5C(COS(=O)(=O)[O-])OC(O/C(=C/C(=O)[O-])CO)C(NC(C)=O)C5O)C(OS(=O)(=O)[O-])C4O)C(NC(C)=O)C3O)C(OS(=O)(=O)[O-])C2O)OC(COS(=O)(=O)[O-])C(O)C1O.[Na+].[Na+].[Na+].[Na+].[Na+].[Na+].[Na+].[Na+] (stereo not drawn)
Output line: 2.4

Every entry's value here was drawn from ChEMBL document CHEMBL1126896.
